- System: C.trachomatis D323
- ASSAY OVERVIEW: Action on Chlamydia trachomatis in cell culture
- Format: cell-based
- EXPERIMENTAL SETUP: 100 mg/l
- Protocol: The antimicrobial activity of the claimed compounds was studied relative to C.trachomatis […], which is a standard strain from the collection of the chair of microbiology of St. Petersburg State Pavlov Medical University. […] Cell cultures McCoy and L929 obtained from the Institute of Cytology of RAS were used in this work. Cells were grown in flasks made of neutral glass in the medium RPMI-1640 with the addition of 10% of fetal calf serum. […]
QUANTITY KIND: percentage of cell protection from infection

* C=CCN1C(=O)C(=NO)C(=O)NC1=S | (65%)
* O=C1NC(=O)N(Cc2ccc(F)cc2)C(=O)C1=NO | (30%)
* COc1ccc(CN2C(=O)NC(=O)C(=NO)C2=O)cc1 | (50%)
* O=C1NC(=O)N(c2cccc3ccccc23)C(=O)C1=NO | (35%)
* CC(C)(C)N1C(=O)NC(=O)C(=NO)C1=O | (50%)
* CCOc1ccc(N2C(=O)NC(=O)C(=NO)C2=O)cc1 | (35%)
* Cc1ccccc1N1C(=O)C(=NO)C(=O)NC1=S | (60%)
* CC(Cc1ccccc1)N1C(=O)NC(=O)C(=NO)C1=O (stereo not drawn) | (35%)

# evaluate next
-- ask Reported percentage of cell protection from infection for O=C1NC(=O)N(c2ccc(F)cc2)C(=O)C1=NO : what is it?
-- reply (65%)

---

Listed here: items and their measured Number of lesions.
- ASSAY OVERVIEW: Antiulcerous action, water immersion stress with immobilization
- Assay type: in vivo, rats
- EXPERIMENTAL SETUP: 20 mg/kg perorally; control 8.3 ± 2.5
Please state the value as a number alone, without comment.

Example entries and their recorded answers appear below.
• O=C1NC(=O)N(C2CCCCC2)C(=O)C1=NO = 3.0
• O=C1NC(=O)N(c2cccc(C(F)(F)F)c2)C(=O)C1=NO = 4.0
• CN(C)CCCN1c2ccccc2Sc2ccc(Cl)cc21 [Chlorpromazine, reference compound] = 0.3

-- ask Reported Number of lesions for O=C1NC(=O)N(c2ccc(F)cc2)C(=O)C1=NO : what is it?
-- reply 1.7

---

- ASSAY OVERVIEW: Antiulcerous action, water immersion stress with immobilization
- Format: in vivo, rats
- EXPERIMENTAL SETUP: 20 mg/kg perorally, versus control
Listed here: items and their measured % of reducing number of ulcers.
Write down the numeric answer in % and omit the unit.

Example entries and their recorded answers appear below.
• O=C1NC(=O)N(C2CCCCC2)C(=O)C1=NO = −64
• O=C1NC(=O)N(c2ccc(F)cc2)C(=O)C1=NO = −79
• CN(C)CCCN1c2ccccc2Sc2ccc(Cl)cc21 [Chlorpromazine, reference compound] = −96

-- ask Reported % of reducing number of ulcers for O=C1NC(=O)N(c2cccc(C(F)(F)F)c2)C(=O)C1=NO : what is it?
-- reply −52

---

- ASSAY OVERVIEW: Antiulcerous action, water immersion stress with immobilization
- Format: in vivo, rats
- EXPERIMENTAL SETUP: 20 mg/kg perorally, rats, 4 hours stress; control 100
- Method: Antiulcerous activity of substances was tested on a model of experimental water immersion stress with immobilization. […] After that, gastric mucous membrane was investigated, number and sizes of ulcers were counted, ulceration index was determined (an average sum of ulcer lengths per one animal in a group).
Listed here: items and their measured % of animals with ulcers.
Remember to put the unit after the number in your answer.

Example entries and their recorded answers appear below.
* O=C1NC(=O)N(c2ccc(F)cc2)C(=O)C1=NO | 67%
* CN(C)CCCN1c2ccccc2Sc2ccc(Cl)cc21 [Chlorpromazine, reference compound] | 33%
* O=C1NC(=O)N(c2cccc(C(F)(F)F)c2)C(=O)C1=NO | 100%

# evaluate next
-- ask Reported % of animals with ulcers for O=C1NC(=O)N(C2CCCCC2)C(=O)C1=NO : what is it?
-- reply 100%
